Tested on: Esterases of Rat Skin
measurement_notes: Cleavage in the Homogenate of Normal Rat Skin (unspecific cleavage by esterases of rat skin)
Assay type: in vitro ADME
experimental_parameters: percent of hydrolysis rate of 6α-methylprednisolone-17-propionate-21-acetate; approximately 100 μmol/l, pH=7.4, 37° C.
Where a SMILES comes first, the peptide text is derived from it. The star is where a group is joined. Methylprednisolone(17-OCOEt) = CCC(=O)O[C@]1(C(=O)CO*)CC[C@H]2[C@@H]3C[C@H](C)C4=CC(=O)C=C[C@]4(C)[C@H]3[C@@H](O)C[C@@]21C; X1 = C[C@H]1C[C@@H]2[C@H]([C@@H](O)C[C@@]3(C)[C@H]2CC[C@]3(O)C(=O)CO*)[C@@]2(C)C=CC(=O)C=C12; Phthalimidoacetyl = O=C1c2ccccc2C(=O)N1CC(=O)*; Diphenylacetyl = O=C(C(c1ccccc1)c1ccccc1)*; Fmoc = O=C(OCC1c2ccccc2-c2ccccc21)*; X4 = O=C(C=Cc1ccccc1)*
readout: Relative Hydrolysis Rate [%] (%)
Answers are plain numbers, in %.

Solved cases below.
1) CCC(=O)O[C@]1(C(=O)COC(C)=O)CC[C@H]2[C@@H]3C[C@H](C)C4=CC(=O)C=C[C@]4(C)[C@H]3[C@@H](O)C[C@@]21C [reference compound]	100
2) CCCCC(=O)O[C@]1(C(=O)COC(=O)[C@@H](NC(=O)[C@@H]2CCCN2C(=O)[C@H](C)NC(=O)[C@H](C)NC(=O)OC(C)(C)C)C(C)C)[C@@H](C)C[C@H]2[C@@H]3CCC4=CC(=O)C=C[C@]4(C)[C@@]3(F)[C@@H](O)C[C@@]21C [Example 38]	0
3) CCCCC(=O)O[C@]1(C(=O)COC(=O)[C@@H](NC(=O)[C@@H]2CCCN2C(=O)[C@H](C)NC(=O)[C@H](C)NC(=O)OCC2c3ccccc3-c3ccccc32)C(C)C)[C@@H](C)C[C@H]2[C@@H]3CCC4=CC(=O)C=C[C@]4(C)[C@@]3(F)[C@@H](O)C[C@@]21C [Example 39]	0
4) CCC(=O)O[C@]1(C(=O)COC(=O)[C@@H](NC(=O)[C@@H]2CCCN2C(=O)[C@H](C)NC(=O)[C@H](C)NC(=O)C(c2ccccc2)c2ccccc2)C(C)C)CC[C@H]2[C@@H]3C[C@H](C)C4=CC(=O)C=C[C@]4(C)[C@H]3[C@@H](O)C[C@@]21C [Example 10] (Diphenylacetyl-AAPV-{Methylprednisolone(17-OCOEt)})	6
5) CCC(=O)O[C@]1(C(=O)COC(=O)[C@@H](NC(=O)[C@@H]2CCCN2C(=O)[C@H](C)NC(=O)[C@H](C)NC(=O)CN2C(=O)c3ccccc3C2=O)C(C)C)CC[C@H]2[C@@H]3C[C@H](C)C4=CC(=O)C=C[C@]4(C)[C@H]3[C@@H](O)C[C@@]21C [Example 17] (Phthalimidoacetyl-AAPV-{Methylprednisolone(17-OCOEt)})	49

Batch request: Relative Hydrolysis Rate [%] per item, same order as input.
1. CC(C)[C@H](NC(=O)[C@@H]1CCCN1C(=O)[C@H](C)NC(=O)[C@H](C)NC(=O)OCC1c2ccccc2-c2ccccc21)C(=O)OCC(=O)[C@@]1(O)CC[C@H]2[C@@H]3C[C@H](C)C4=CC(=O)C=C[C@]4(C)[C@H]3[C@@H](O)C[C@@]21C [Example 22] (Fmoc-AAPV-X1)
2. CCC(=O)O[C@]1(C(=O)COC(=O)[C@@H](NC(=O)[C@@H]2CCCN2C(=O)[C@H](C)NC(=O)[C@H](C)NC(=O)C=Cc2ccccc2)C(C)C)CC[C@H]2[C@@H]3C[C@H](C)C4=CC(=O)C=C[C@]4(C)[C@H]3[C@@H](O)C[C@@]21C [Example 13] (X4-AAPV-{Methylprednisolone(17-OCOEt)})

Data returned:
6
5
